Origin of measurements: ChEMBL document CHEMBL1201862

Test system: M14
experiment.description: NCI tumour cell line growth inhibition, 48 h
The source made the active and inactive calls. No stated cut-off is given here; in the data, active = GI50 up to about 1.1 µM and inactive = higher.
Hello, when you answer, please use one of the following outcomes: T for active, F for inactive

## Task Which outcome did this test record for the molecule CCc1nnc(CC)n1NCCCC(=O)O ?
## Result F

## Task Assay result, entry COc1c(C(=O)CC2c3c(cc4oc(C)cc(=O)c4c3OC)OC(=N)C2c2nc3ccccc3[nH]2)c(O)c(OC)c2occc12 (stereo unspecified) — outcome?
## Result F

## Task Hi team, can someone confirm the assay call for O=c1[nH]cc(/C=N\Nc2ccccc2)c(=O)[nH]1 ?
## Result F

## Task I'd appreciate the recorded outcome for COc1cc(CNNC(N)=S)cc(OC)c1OC from this test.
## Result F

## Task Which result was noted for this molecule in the test: CC(C)C1=CC(=O)[C@@](C)(C2[C@H](O)C[C@@]3(C)[C@@H]4CC=C5[C@@H](CC[C@@H](OC6OCC(O)C(O)C6OC6OC(C)C(O)C(O)C6O)C5(C)C)[C@]4(C)C(=O)C[C@]23C)O1 (stereo partly specified)
## Result F

## Task So what was the verdict on N=C(c1ccc2ccccc2c1)c1ccccc1Cc1ccccc1 in this test?
## Result F

## Task Please share the test call associated with O=C(OC(=C(c1ccccc1)c1ccccc1)N1CCCC1=S)C(c1ccccc1)c1ccccc1 .
## Result F

## Task For COC1=C(Br)[C@H](O)[C@@]2(C=C1Br)CC(C(=O)NCCCOc1c(Br)cc(C(O)CNC(C)=O)cc1Br)=NO2 (stereo partly specified) , what call appears in the results of this test?
## Result F

## Task // param item: CSC1NC(c2ccc(Cl)cc2)=C(C#N)C(=O)N1C1OCC(OC(C)=O)C(OC(C)=O)C1OC(C)=O (stereo unspecified) ; yields the recorded call
## Result F

## Task What classification did CC(=O)N1C/C(=C\c2ccccc2)C(=O)/C(=C/c2ccccc2)C1 end up with in this test?
## Result F

## Task Would you mind telling me which call this test gave O=C1/C(=N/N=C(c2ccccc2)c2ccccc2)c2ccccc2-c2ccccc21 ?
## Result F

## Task Hi team, can someone confirm the assay call for O=C1C=C(Br)c2c(-c3ccccc3)oc3cccc1c23 ?
## Result F

## Task GET /call?item= CN(NC(=O)/C(=C\c1ccco1)NC(=O)c1ccccc1)c1cn[nH]c(=O)c1Cl returns the recorded outcome of this test.
## Result F

## Task In this assay, the call recorded for CCOC(=O)c1nc2ccccc2n(CC)c1=O was what?
## Result F

## Task Look up the recorded call for NC1CC(=O)c2cscc21 (stereo unspecified) in this test.
## Result F

## Task // return assay outcome for COc1ccc2[nH]c3c(C)c4ccnc(NCCCN(C)CCCNc5ccc6ncn7c8ccccc8c(=O)c5c67)c4c(C)c3c2c1
## Result T

## Task What is the recorded call for this molecule in the test? CCN(CC)C(=O)c1ccc(C)c(/N=N/N(C)C)c1
## Result F

## Task // param item: CC1/C(=N\O)CC(c2ccccc2)N(C)C1c1ccccc1 (stereo unspecified) ; yields the recorded call
## Result F

## Task What did this assay record as the result for CC[C@@H]1CN(C)[C@H]2Cc3c([nH]c4ccccc34)C(=O)C[C@H]1C2C(=O)OC (stereo partly specified) ?
## Result F

## Task Hi, sorry to bother you, what did the test record for CCCCCCCCCCCCCCCCCc1nc(C#N)c(N)o1 ?
## Result F

## Task Assay result, entry C/C=C/C(C#N)O[Si](C)(C)C (stereo unspecified) — outcome?
## Result F

----------
System: BT-549
experiment.description: NCI tumour cell line growth inhibition, 48 h
Calls of active or inactive are those of the source. No stated cut-off is given here; in the data, active = GI50 up to about 1.1 µM and inactive = higher.
property.measured: GI50

The compound listed as CCCCCCCCCCCCCCCC(=O)N(CCCCCCCCCCC(=O)O)CC(O)C(O)C(OC1OC(CO)C(O)C(O)C1O)C(O)CO (stereo not drawn) shows GI50 equal to 25.4 µM (inactive)

Looking up C[C@]12CC[C@H](O[C@@H]3O[C@H](CO[C@@H]4O[C@H](CO)[C@@H](O)[C@H](O)[C@H]4O)[C@@H](O)[C@H](O)[C@H]3O)C[C@@H]1CC[C@@H]1[C@@H]2CC[C@]2(C)[C@@H](C3=CC(=O)OC3)CC[C@]12O , I found its GI50 recorded as 6.71 µM (inactive)

Recorded result, CC(=O)c1nccc2c1c(C)nc1ccccc12 , GI50: 97.3 µM (inactive)

# GI50 (compound: Nc1nc(Cl)c(N)c(NCC2(CO)CCC(OCc3ccccc3)C2)n1 (stereo not drawn) ) is 61.9 µM (inactive)

Lab note: measured GI50 of C=C1CC(C#N)(C#N)[C@@H]2CC3CCCC3[C@H]12.C=C1CC(C#N)(C#N)[C@H]2C3CCCC3C[C@@H]12 (stereo partly drawn) was 25.9 µM (inactive)

// GI50 lookup, compound = CN(C(=O)Cc1cc(Cl)c(Cl)cc1NC(=O)CCCN)[C@H]1CCCC[C@@H]1N1CCCC1 , result: 71.9 µM (inactive)

Reported GI50 for CCOC(=O)/C(=C\c1ccc(F)cc1)C(C)=O was 21.5 µM (inactive)

GI50 measured on C#CCOC(=O)C(=[N+]=[N-])C(=O)CC(C)C = > 10 µM (inactive)

----------
System: A549
experiment.description: NCI tumour cell line growth inhibition, 48 h
Calls of active or inactive are those of the source. Cut-off read from the data, not from the text of the source: active = GI50 up to about 1.1 µM and inactive = higher.
Write down the outcome that applies. Available outcomes: active, inactive

## Task Give the logged outcome of this assay for the following molecule: CN(C)CC(/C(Cc1ccccc1)=N\NC(=O)C[n+]1ccccc1)c1ccccc1 (stereo not given)
## Result inactive

## Task Name the outcome recorded for CC(C)CCCC(C)[C@H]1CCC2[C@@H]3CCC4Nc5c(cnn5-c5ccccc5)C[C@]4(C)C3CC[C@@]21C (stereo not given in full) in the assay.
## Result inactive

## Task Could you kindly confirm the outcome this assay logged for CC1=C2C(=C[C@@](C)(CO)[C@@H]2O)C(=O)[C@](C)(O)C12CC2 [ILLUDIN] ?
## Result active

## Task Please state the recorded outcome for this molecule: C/N=C(\Nc1cccc(C(F)(F)F)c1)SCc1ccc(N=C=S)cc1
## Result inactive

## Task What outcome does the record of this test show for CC(C)OC(=O)C1=C(O)c2ccccc2S(=O)(=O)N1 ?
## Result inactive

----------
System: BT-549
experiment.description: NCI tumour cell line growth inhibition, 48 h
Active and inactive are the calls of the source. Rule as the data show it: active = GI50 up to about 1.1 µM and inactive = higher.
Your response should consist of one outcome taken from 1.0 = active, 0.0 = inactive

## Task Tell me the assay call for COC(=O)[C@@H]1c2cc3c(c(O)c2[C@@H](OC2OC(C)C(OC)C(C)(OC)C2OC)C[C@]1(C)O)C(=O)c1c(O)cc2c(c1C3=O)O[C@H]1O[C@]2(C)[C@H](O)[C@@H](N(C)C)[C@@H]1O (stereo partly drawn) please.
## Result 1.0

## Task Could you kindly confirm the outcome this assay logged for O=C(CCc1ccc(O)c(O)c1)OCCc1ccccc1 ?
## Result 0.0

## Task Short answer needed: outcome of this test for CC[C@@H]1CN(C)[C@H]2Cc3c([nH]c4ccccc34)C(=O)C[C@H]1C2C(=O)OC (stereo partly drawn) ?
## Result 0.0

----------
System: UACC-257
experiment.description: NCI tumour cell line growth inhibition, 48 h
Active and inactive are the calls of the source. Rule as the data show it: active = GI50 up to about 1.1 µM and inactive = higher.
property.measured: GI50

Field GI50 (system: UACC-257) for entry CC(C)CC(NC(=O)C(CCI)Cc1ccccc1)C(=O)Nc1ccccc1 (stereo not given) = > 100 µM (inactive)

Form field GI50 for item CCOC(=O)C(Cc1cn(S(=O)(=O)c2ccc(C)cc2)cn1)P(=O)(OCC)OCC (stereo not given) on UACC-257: > 100 µM (inactive)

GI50 on UACC-257 for CC1=Nc2ccccc2C12C(c1ccccc1)C(c1ccccc1)C(=O)N1c3ccccc3CC12 (stereo not given) is > 100 µM (inactive)

Simply: C[C@@]12CCC(=O)C=C1CC[C@H]1C2=CC[C@]2(C)C1CC[C@@]2(C)O (stereo not given in full) , UACC-257, GI50 = 69.2 µM (inactive)

Value sought: GI50, system UACC-257, item O=[N+]([O-])c1ccc(Sc2c3ccccc3nc3cc(Cl)ccc23)cc1 . Result: > 10 µM (inactive)

----------
Please provide measured GI50 for the entries that follow.
Tested on: SNB-78
experiment.description: NCI tumour cell line growth inhibition, 48 h
Active and inactive are the calls of the source. No stated cut-off is given here; in the data, active = GI50 up to about 1.1 µM and inactive = higher.

Summary for this molecule, CCOC(=O)C1C(=O)CN2CCc3c([nH]c4ccccc34)C12C(=O)OCC (stereo unspecified) : GI50 is > 100 µM (inactive)

What the record says about CC(=O)c1cccc(NC(=O)C(=O)C(C(=O)c2ccccc2F)C2OC(=O)c3ccccc32)c1 (stereo unspecified) : GI50 is 12.5 µM (inactive)

Per the record, CO[C@H](C(=O)O[C@H]1C(=O)N2CCC3CCC1C32C)c1ccccc1 (stereo partly specified) has GI50 of > 100 µM (inactive)

Value of measured GI50 for the entry CC(=O)[O-].[Zn+].c1ccc(/C(=N\Nc2ccccn2)c2ccccn2)cc1 : 2.38 µM (inactive)

Reported GI50 of CCOP(=O)(OCC)/C(C#N)=C/c1cc(O)ccc1O : > 100 µM (inactive)

response.value for CCOCN1COCN/C1=N/C#N (field: GI50) = > 100 µM (inactive)

// GI50 value for Cc1ccc(/C=C/C(=O)c2sc(-n3nc(-c4ccccc4)cc3-c3ccccc3)nc2C)cc1 : > 100 µM (inactive)

Form: molecule = c1cc2n(n1)CCN2 ; GI50 = 4740 µM (inactive)

Entry CCOC(=O)C1S(=O)(=O)OCCOS1(=O)=O ; GI50 = > 100 µM (inactive)

Quick note, GI50 for N#CCC(=O)N/N=C1\C(=O)N(c2ccc(Cl)cc2)C(=O)C(=O)C1c1nc2ccccc2o1 (stereo unspecified) landed at > 100 µM (inactive)

molecule CC/C=C\C/C=C\C/C=C\CCCCCCCC(=O)OCC(O)CO (stereo unspecified) , GI50 observed: > 58.7 µM (inactive)
